src = ChEMBL document CHEMBL3297655

PROTOCOL DESCRIPTION: Inhibition of tRNA-guanine transglycosylase (unknown origin) assessed as Gibbs free enthalpy at 25 degC at 200 to 300 uM by isothermal titration calorimetry
Threshold -40 kJ/mol: deltaG strictly smaller gives 1, otherwise -1.

Use these answered entries as a reference point.
STRUCTURE SMILES	ASSIGNED CLASS
Nc1nc2cc3[nH]c(NCCN4CCOCC4)nc3cc2c(=O)[nH]1	1
O=c1[nH]cnc2cc3[nH]c(NCCN4CCCCC4)nc3cc12	-1
CNc1nc2cc3c(=O)[nH]cnc3cc2[nH]1	-1
O=c1[nH]cnc2cc3nc(NCCN4CCOCC4)[nH]c3cc12	-1
CNc1nc2cc3c(=O)[nH]c(N)nc3cc2[nH]1	1
Nc1nc2cc3[nH]c(NCCN4CCCCC4)nc3cc2c(=O)[nH]1	1

Inquiry: Field: below-cutoff. Rule: recorded deltaG strictly less than -40 kJ/mol. Subject: `O=c1[nH]cnc2cc3nc(NCc4cccs4)[nH]c3cc12`
Reply text: -1
